targetOfAssay: UniProt:P23975
Sequence (P23975 whole entry): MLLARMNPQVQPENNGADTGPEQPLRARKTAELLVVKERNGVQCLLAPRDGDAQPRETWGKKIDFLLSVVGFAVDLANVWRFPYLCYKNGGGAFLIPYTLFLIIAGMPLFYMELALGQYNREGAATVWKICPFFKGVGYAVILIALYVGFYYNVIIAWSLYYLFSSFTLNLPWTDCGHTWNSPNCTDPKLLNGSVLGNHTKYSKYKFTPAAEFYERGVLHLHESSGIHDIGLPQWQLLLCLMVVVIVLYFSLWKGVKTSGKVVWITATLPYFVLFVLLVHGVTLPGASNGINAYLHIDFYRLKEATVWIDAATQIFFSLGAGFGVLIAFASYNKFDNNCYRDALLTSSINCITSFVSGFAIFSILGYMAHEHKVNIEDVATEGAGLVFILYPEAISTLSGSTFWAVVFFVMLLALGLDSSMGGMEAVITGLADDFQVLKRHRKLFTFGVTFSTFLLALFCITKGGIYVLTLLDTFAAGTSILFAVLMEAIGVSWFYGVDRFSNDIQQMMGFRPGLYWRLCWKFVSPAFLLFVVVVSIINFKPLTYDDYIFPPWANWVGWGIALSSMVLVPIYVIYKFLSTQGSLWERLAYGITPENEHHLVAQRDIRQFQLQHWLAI
outcomeMeasure: IC50

> print(dat)
                               smilesrecord  recordedresult
1  C[C@@H](CNCc1ccccc1)N1C[C@H](CCCNC(=N)N)N(CCc2cccc(F)c2)C1=S       > 1000 nM

---

targetOfAssay: Muscarinic M3 (Homo sapiens)
Sequence (P20309 whole entry): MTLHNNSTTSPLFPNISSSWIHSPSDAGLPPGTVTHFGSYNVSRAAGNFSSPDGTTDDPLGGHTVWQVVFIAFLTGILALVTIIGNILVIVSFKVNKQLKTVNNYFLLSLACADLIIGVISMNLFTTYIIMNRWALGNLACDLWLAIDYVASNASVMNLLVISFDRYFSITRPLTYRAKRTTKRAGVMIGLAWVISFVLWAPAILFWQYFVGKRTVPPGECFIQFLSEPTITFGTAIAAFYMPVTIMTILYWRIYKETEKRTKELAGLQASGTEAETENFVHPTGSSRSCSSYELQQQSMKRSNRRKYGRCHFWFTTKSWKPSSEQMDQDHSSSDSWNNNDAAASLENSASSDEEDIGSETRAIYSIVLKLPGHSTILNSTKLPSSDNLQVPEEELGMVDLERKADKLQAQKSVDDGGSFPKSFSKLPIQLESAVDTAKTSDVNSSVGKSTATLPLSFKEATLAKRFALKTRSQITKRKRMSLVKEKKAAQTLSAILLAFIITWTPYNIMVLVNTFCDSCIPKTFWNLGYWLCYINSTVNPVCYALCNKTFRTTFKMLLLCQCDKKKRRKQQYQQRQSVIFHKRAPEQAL
outcomeMeasure: IC50

> print(dat)
                               smilesrecord  recordedresult
1  C[C@@H](CNCc1ccccc1)N1C[C@H](CCCNC(=N)N)N(CCc2cccc(F)c2)C1=S          > 1 µM

---

targetOfAssay: Nicotinic Acetylcholine α1, Bungarotoxin (Homo sapiens, UniProt P02708+P07510+Q07001)
Sequence (P07510 23-517): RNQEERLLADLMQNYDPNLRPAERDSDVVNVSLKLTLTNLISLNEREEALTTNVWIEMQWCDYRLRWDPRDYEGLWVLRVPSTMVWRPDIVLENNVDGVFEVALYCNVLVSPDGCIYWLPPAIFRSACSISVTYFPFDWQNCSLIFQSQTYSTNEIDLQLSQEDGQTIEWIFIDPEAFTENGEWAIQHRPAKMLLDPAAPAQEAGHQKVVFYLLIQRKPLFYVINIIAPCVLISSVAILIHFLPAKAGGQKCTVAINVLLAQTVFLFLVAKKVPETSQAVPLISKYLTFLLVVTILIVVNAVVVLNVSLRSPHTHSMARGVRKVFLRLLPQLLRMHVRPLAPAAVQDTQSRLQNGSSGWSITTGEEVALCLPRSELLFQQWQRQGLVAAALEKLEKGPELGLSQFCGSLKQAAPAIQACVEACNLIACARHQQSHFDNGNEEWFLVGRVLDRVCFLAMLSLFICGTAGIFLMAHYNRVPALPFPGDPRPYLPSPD
Sequence (Q07001 22-517): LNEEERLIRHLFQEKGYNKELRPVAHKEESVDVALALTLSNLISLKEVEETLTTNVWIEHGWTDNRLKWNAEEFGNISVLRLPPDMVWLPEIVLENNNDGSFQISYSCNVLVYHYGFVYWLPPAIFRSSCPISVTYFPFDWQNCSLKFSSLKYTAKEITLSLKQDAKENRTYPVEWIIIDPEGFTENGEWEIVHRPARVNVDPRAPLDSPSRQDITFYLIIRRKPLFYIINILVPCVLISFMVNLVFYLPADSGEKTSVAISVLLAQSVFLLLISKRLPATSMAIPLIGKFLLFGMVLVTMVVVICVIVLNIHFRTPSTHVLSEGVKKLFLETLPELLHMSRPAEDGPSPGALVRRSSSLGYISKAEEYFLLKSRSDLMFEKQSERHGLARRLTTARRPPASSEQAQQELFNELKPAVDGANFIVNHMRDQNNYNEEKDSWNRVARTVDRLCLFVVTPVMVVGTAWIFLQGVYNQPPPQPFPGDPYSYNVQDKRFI
Sequence (P11230 24-501, further chain): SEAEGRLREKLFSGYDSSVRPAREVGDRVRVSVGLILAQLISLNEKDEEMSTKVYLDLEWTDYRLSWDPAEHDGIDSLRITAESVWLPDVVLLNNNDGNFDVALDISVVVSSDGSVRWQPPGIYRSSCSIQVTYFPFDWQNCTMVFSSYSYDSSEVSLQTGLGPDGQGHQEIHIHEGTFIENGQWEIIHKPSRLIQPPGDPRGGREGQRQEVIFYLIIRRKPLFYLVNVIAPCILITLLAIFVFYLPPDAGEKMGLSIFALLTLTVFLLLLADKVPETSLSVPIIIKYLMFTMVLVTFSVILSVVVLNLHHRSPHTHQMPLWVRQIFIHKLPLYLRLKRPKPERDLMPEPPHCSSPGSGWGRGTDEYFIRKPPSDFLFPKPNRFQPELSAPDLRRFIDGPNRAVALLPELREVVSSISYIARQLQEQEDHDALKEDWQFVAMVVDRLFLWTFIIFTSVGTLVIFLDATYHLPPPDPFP
Sequence (P02708 21-457): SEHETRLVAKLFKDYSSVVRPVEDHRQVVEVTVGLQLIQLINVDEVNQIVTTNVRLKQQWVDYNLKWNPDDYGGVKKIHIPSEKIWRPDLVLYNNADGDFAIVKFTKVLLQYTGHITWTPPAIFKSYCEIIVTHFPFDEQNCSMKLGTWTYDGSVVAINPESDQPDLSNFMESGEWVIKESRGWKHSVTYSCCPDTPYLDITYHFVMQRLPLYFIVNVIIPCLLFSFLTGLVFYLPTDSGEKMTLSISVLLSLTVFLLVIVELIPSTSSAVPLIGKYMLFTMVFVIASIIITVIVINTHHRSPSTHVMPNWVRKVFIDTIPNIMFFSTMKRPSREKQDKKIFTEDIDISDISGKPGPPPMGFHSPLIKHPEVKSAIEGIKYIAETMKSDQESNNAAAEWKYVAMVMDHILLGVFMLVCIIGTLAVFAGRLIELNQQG
assayDetails: biochemical
outcomeMeasure: IC50

> print(dat)
                                   compound  recordedresult
1  C[C@@H](CNCc1ccccc1)N1C[C@H](CCCNC(=N)N)N(CCc2cccc(F)c2)C1=S [TPI 1361-17]       > 1000 nM

---

targetOfAssay: Muscarinic M2 (Homo sapiens, UniProt P08172)
Sequence (P08172 1-466): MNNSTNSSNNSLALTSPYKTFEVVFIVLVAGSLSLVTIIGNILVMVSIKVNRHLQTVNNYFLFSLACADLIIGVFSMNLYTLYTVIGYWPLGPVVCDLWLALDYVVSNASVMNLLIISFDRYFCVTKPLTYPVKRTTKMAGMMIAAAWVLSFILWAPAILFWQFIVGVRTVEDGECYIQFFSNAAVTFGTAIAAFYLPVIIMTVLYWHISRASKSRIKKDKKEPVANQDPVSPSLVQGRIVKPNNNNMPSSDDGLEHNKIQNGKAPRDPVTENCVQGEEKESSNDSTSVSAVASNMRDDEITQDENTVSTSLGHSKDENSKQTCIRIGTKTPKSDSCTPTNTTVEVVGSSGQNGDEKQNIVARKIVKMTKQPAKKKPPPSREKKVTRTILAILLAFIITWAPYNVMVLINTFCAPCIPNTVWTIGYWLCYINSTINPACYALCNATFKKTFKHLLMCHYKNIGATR
pIC50: −log10 of the molar value.
outcomeMeasure: pIC50

> print(dat)
                               smilesrecord  recordedresult
1  C[C@@H](CNCc1ccccc1)N1C[C@H](CCCNC(=N)N)N(CCc2cccc(F)c2)C1=S          < 6.00

---

targetOfAssay: hERG channel (Homo sapiens, UniProt Q12809)
Sequence (Q12809 whole entry): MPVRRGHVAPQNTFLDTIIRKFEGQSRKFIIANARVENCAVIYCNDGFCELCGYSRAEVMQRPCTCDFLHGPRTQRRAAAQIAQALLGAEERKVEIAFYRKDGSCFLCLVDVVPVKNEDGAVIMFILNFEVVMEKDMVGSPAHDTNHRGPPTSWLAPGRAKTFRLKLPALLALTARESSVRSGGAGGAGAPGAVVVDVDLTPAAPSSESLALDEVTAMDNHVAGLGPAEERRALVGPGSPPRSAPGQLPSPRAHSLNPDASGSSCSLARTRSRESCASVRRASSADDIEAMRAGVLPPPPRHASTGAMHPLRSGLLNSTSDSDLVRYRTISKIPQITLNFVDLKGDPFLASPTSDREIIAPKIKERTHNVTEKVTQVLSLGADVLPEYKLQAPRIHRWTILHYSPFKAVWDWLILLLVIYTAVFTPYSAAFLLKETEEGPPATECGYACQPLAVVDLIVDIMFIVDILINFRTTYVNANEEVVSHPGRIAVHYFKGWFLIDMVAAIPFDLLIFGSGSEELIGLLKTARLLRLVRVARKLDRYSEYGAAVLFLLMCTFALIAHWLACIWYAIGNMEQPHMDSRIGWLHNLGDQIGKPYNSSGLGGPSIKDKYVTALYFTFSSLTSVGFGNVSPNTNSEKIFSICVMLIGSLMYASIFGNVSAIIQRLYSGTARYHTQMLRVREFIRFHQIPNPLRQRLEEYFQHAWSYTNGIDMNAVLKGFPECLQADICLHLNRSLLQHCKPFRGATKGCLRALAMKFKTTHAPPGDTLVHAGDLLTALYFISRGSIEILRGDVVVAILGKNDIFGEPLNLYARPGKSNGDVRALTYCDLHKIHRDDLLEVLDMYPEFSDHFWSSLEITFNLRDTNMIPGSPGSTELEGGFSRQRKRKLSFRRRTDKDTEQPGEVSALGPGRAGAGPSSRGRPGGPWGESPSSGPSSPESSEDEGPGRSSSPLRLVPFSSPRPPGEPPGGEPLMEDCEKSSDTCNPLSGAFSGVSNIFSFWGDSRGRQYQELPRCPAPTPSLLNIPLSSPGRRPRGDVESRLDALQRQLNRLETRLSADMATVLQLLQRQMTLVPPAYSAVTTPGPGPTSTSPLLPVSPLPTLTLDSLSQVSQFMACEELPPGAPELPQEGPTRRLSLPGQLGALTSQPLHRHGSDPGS
assayDetails: in vitro hERG electrophysiology assay
pIC50: −log10 of the molar value.
outcomeMeasure: pIC50

> print(dat)
                                   compound  recordedresult
1  C[C@@H](CNCc1ccccc1)N1C[C@H](CCCNC(=N)N)N(CCc2cccc(F)c2)C1=S [TPI 1361-17]          < 5.00

---

targetOfAssay: Phorobol Ester
assayDetails: Radioligand displacement
conditionSummary: read-out: BINDING Phorobol Ester; displacement of specific radioactive ligand
outcomeMeasure: IC50

> print(dat)
                               smilesrecord  recordedresult
1  C[C@@H](CNCc1ccccc1)N1C[C@H](CCCNC(=N)N)N(CCc2cccc(F)c2)C1=S          > 1 µM

---

targetOfAssay: UniProtKB P35367
Sequence (P35367 whole entry): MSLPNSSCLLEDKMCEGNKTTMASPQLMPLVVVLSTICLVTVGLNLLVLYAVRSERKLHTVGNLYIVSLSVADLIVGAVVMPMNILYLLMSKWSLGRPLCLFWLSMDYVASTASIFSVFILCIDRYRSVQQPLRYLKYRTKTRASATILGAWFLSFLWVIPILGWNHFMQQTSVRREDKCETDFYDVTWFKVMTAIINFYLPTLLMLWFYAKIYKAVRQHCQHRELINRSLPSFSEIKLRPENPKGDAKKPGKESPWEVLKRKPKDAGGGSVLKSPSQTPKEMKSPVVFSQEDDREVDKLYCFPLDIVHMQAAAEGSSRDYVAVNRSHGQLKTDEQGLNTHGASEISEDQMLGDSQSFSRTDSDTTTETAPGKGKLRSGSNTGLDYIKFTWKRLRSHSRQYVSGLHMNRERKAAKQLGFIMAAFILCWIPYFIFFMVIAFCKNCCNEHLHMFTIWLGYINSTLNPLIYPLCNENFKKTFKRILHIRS
pIC50: −log10 of the molar value.
outcomeMeasure: pIC50

> print(dat)
                                   compound     targetofassay  recordedresult
1  C[C@@H](CNCc1ccccc1)N1C[C@H](CCCNC(=N)N)N(CCc2cccc(F)c2)C1=S [TPI 1361-17]  UniProtKB P35367          < 6.00
